# Tested on: Sonic hedgehog protein (Shh)
# Protocol Description: small-molecule binders of Shh protein, primary screen, biochemical, small-molecule microarray, 635/667 nm fluorescence (AID 1151);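 note: Shh protein binding to compounds spotted on small-molecule microarray slides; score combines spot fluorescence intensity with signal-to-noise across triplicate slides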
# Conditions Used: small-molecule microarray binding, 635 nm fluorescence; higher = more signal
Reported Property: composite z-score
Give a plain numeric answer without units written out.

Guide cases for composite z-score, answers given:
[[record]]
structure = "Cc1ccc(S[C@]2(C(=O)NC3CC3)CC(=O)N(Cc3ccccc3)[C@@H]2c2ccc(CO)cc2)cc1"
experimental_value = -0.863

[[record]]
structure = "O=C1C[C@]2(c3ccc([N+](=O)[O-])cc3)C(=O)N(CC(F)(F)F)c3cc(CO)ccc3[C@H]2N1CC12CC3CC(CC(C3)C1)C2"
experimental_value = 0.277


// below: composite z-score requested for another compound
Ask: // composite z-score lookup, key: `C=CCOC(=O)[C@@H]1[C@H]2C(=O)O[C@H](c3ccccc3)[C@H](c3ccccc3)N2[C@H](c2ccc(OCCOC(=O)[C@@H]3C[C@@H]4C(=O)N[C@@H](Cc5ccccc5)C(=O)N4[C@@H]3c3cccc(OCCO)c3)cc2)[C@@]12C(=O)Nc1ccc(I)cc12`
Reply: 2.16
